experiment: Half-life for disappearance of compound from dog whole blood; type: ADME, organism-based, Canis lupus familiaris
Readout: half-life (min)

C[n+]1cccc(C(=O)NCCOC(=O)C2N3C(=O)C(NC(=O)Cc4ccccc4)C3SC2(C)C)c1.[I-] (stereo not drawn) :: 14.5

[I] CN1C=CCC(C(=O)OCOC(=O)C2N3C(=O)C(NC(=O)Cc4ccccc4)C3SC2(C)C)=C1 (stereo not drawn)
[II] C[n+]1cccc(C(=O)OCCOC(=O)C2N3C(=O)C(NC(=O)Cc4ccccc4)C3SC2(C)C)c1.[I-] (stereo not drawn)
Query: Of the two listed items, which has the higher half-life? First: I Second: II Output the label that corresponds to your choice.
Result: II
(II: 11.5 min, I: 3.6 min)
